B1: NEUROD6 (parent)
chain: YHSPELTTPPGHGTLDNSKSMKPY

Variants of: B1
ASSAY REMARKS: protein stability index of a GFP-peptide fusion (GPS, HEK-293T) (PSI 1-6); higher = more stable;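 note: lentivirally expressed fusions sorted by FACS into six bins by GFP to DsRed ratio, PSI derived from sequencing read proportions per bin multiplied by bin number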
TEST PARAMETERS: c terminus: a fixed tail appended
So basically: protein stability index at 3 or higher? That is fulfilled. Lower than 3? That is not fulfilled.

MACROMOLECULE SEQUENCE | CLASS NAME
YHSPELTTPPGHGELDNSKSMKPY [T14E] | not fulfilled
YHSPELTTPPGHGTLWNSKSMKPY [D16W] | not fulfilled
YHSPELTTCPGHGTLDNSKSMKPY [P9C] | not fulfilled
YHSIELTTPPGHGTLDNSKSMKPY [P4I] | not fulfilled
MHSPELTTPPGHGTLDNSKSMKPY [Y1M] | fulfilled
YHSPELYTPPGHGTLDNSKSMKPY [T7Y] | not fulfilled
YLSPELTTPPGHGTLDNSKSMKPY [H2L] | fulfilled
YHSPELTTPPGHGTYDNSKSMKPY [L15Y] | not fulfilled
YHSPELTTPPGHGGLDNSKSMKPY [T14G] | not fulfilled
YHSPELTTPEGHGTLDNSKSMKPY [P10E] | not fulfilled
YHSPELTTPPGHGTLDNSKSMPPY [K22P] | not fulfilled
YHSPELTTPIGHGTLDNSKSMKPY [P10I] | not fulfilled
YHSPELKTPPGHGTLDNSKSMKPY [T7K] | not fulfilled
YHSPELTTPPGHGTLDNSKSMTPY [K22T] | not fulfilled
YHSPELTTPPGHGILDNSKSMKPY [T14I] | not fulfilled
YRSPELTTPPGHGTLDNSKSMKPY [H2R] | fulfilled
YHSPELTTYPGHGTLDNSKSMKPY [P9Y] | not fulfilled
YHSFELTTPPGHGTLDNSKSMKPY [P4F] | not fulfilled
YHSPELTTPPGHGTKDNSKSMKPY [L15K] | not fulfilled
YHSPELTTPPGHGTLDNSKSMKPD [Y24D] | not fulfilled
WHSPELTTPPGHGTLDNSKSMKPY [Y1W] | fulfilled
